Listed binders paired with reported kon
Study System: T1, human CD33 (human, UniProt P20138 18-259, limits assumed)
T1 construct: Human CD33 immobilized on the BLI sensor tip or the BIAcore C1 chip; also called Siglec-3
T1 sequence (P20138 18-259 limits assumed): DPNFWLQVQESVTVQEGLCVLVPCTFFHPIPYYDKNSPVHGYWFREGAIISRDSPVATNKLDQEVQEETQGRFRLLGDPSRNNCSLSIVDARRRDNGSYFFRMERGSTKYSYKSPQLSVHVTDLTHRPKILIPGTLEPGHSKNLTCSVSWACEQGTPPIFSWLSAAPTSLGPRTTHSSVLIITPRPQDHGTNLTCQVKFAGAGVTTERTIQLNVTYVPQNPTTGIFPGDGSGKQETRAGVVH
Protocol Summary: SPR (BIAcore), Fab over CD33 on C1 chip
Experimental: The affinity parameters for 10 of the 88 humanized antibodies (AB-H1, AB-H3, AB-H6, AB-H11, AB-H22, AB-H24, AB-H26, AB-H63, AB-H64, and AB-H71) were measured in a separate experiment by a more sensitive technique, surface plasmon resonance (BIAcore), and compared to Chimeric Ab and Chimeric Ab #2. […] The Fabs were measured at 5 concentrations: a high concentration of 27 nM and 3-fold serial dilutions.

# Binder, kon [M⁻¹ s⁻¹]
rows = [
    ("AB-H11 (antibody, V domains shown, Humanized variant of murine 2F5.1) VH: QVQLVQSGAEVKKPGASVKVSCKASGYTFTDYNLHWVRQAPGQSLEWIGFIYPSNGITGYSQKFQGKATLTVDTSASTAYMELSSLRSEDTAVYYCARSTVDYFDYWGQGTTVTVSS VL: DIQMTQSPSSLSASVGDRVTITCRASQSVSTSTYSYMHWYQQKPGKAPKLLIYYASNLESGVPSRFSGSGSGTDFTLTISSLQPEDFATYYCQHSWEIPLTFGQGTKLEIK", "1.22e+06"),
    ("AB-H3 (antibody, V domains shown, Humanized variant of murine 2F5.1) VH: QVQLVQSGAEVKKPGASVKISCKASGYTFTDYNLHWVRQAPGQGLEWIGFIYPSNGITGYAQKFQGRATLTVDTSTSTAYMELSSLRSEDTAVYYCARSTVDYFDYWGQGTLLTVSS VL: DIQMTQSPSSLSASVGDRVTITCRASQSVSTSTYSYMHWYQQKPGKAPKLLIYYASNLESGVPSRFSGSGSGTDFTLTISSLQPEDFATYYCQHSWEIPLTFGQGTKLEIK", "1.23e+06"),
    ("AB-H63 (antibody, V domains shown, Humanized variant of murine 2F5.1) VH: QVQLVQSGAEVKKPGASVKVSCKASGYTFTDYNLHWVRQAPGQGLEWIGFIYPSNGITGYAQKFQGRVTMTVDTSTSTVYMELSSLRSEDTAVYYCARSTVDYFDYWGQGTLVTVSS VL: DIVLTQSPDSLAVSLGERATINCRASQSVSTSTYSYMHWYQQKPGQPPKLLIKYASNLESGVPDRFSGSGSGTDFTLTISSLQAEDVAVYYCQHSWEIPLTFGQGTKLEIK", 744000),
    ("AB-H22 (antibody, V domains shown, Humanized variant of murine 2F5.1; also called AB-22) VH: QVQLVQSGAEVKKPGASVKISCKASGYTFTDYNLHWVRQAPGQRLEWIGFIYPSNGITGYNQKFKNKATLTVDTSASTAYMELSSLRSEDTAVYYCARSTVDYFDYWGQGTTVTVSS VL: DIQMTQSPSSLSASVGDRVTITCRASQSVSTSTYSYMHWYQQKPGKAPKLLIKYASNLESGVPSRFSGSGSGTDFTLTISSLQPEDFATYYCQHSWEIPLTFGQGTKLEIK", 690000),
    ("AB-H1 (antibody, V domains shown, Humanized variant of murine 2F5.1) VH: QVQLVQSGAEVKKPGASVKVSCKASGYTFTDYNLHWVRQAPGQGLEWMGFIYPSNGITGYAQKFQGRVTMTRDTSTSTVYMELSSLRSEDTAVYYCARSTVDYFDYWGQGTLVTVSS VL: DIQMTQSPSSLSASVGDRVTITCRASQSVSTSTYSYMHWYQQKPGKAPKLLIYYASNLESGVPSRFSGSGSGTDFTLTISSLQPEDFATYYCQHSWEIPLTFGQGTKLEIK", "1.18e+06"),
    ("Chimeric Ab #2 (antibody, V domains shown, Chimeric Ab with a VH-FR3 mutation that removes the predicted N-glycosylation site) VH: EVQLQQSGPELVKPGASVKISCKASGYTFTDYNLHWVKLSHGKSLEWIGFIYPSNGITGYNQKFKNKATLTVDTSSSTAYMELRSLTSEDSAVYYCARSTVDYFDYWGQGTTLTVSS VL: DIVLTQSPASLAVSLGQRATMSCRASQSVSTSTYSYMHWYQQKPGQPPKLLIKYASNLESGVPARFSGSGSGTDFTLNIHPVEEEDTATYYCQHSWEIPLTFGAGTKLELK", 991000),
]
